IC50 for assorted compounds
Target: Prothrombin (Bos taurus)
Experiment: thrombin protease inhibitors – biochemical, fluorescence polarization, uHTS hits, dose response (AID 602369)
Assay type: functional
The source made the active and inactive calls.

Recorded IC50, per entry:
[
  {
    "line.notation": "CC(=O)Nc1ccc(/C(C)=N/NC(=O)c2ccc(COc3ccccc3Cl)o2)cc1",
    "IC50": "43.6 µM (active)"
  },
  {
    "line.notation": "Cc1ccc(C(=O)CSc2cc(C)nc(=O)[nH]2)cc1",
    "IC50": "47.5 µM (active)"
  },
  {
    "line.notation": "O=C(O)CN1C(=O)/C(=C\\c2ccc(OC(=O)c3ccco3)cc2)SC1=S",
    "IC50": "27.8 µM (active)"
  }
]

Okay, next one:
compound `CCN(CC)CCOC(=O)c1ccc(N/C=C(/C#N)c2nc(-c3ccc(OC)c(OC)c3)cs2)cc1` , IC50 observed: 28.7 µM (active)

* * *

Target: Protein skinhead-1 (Caenorhabditis elegans, UniProt P34707)
Sequence (P34707 whole entry): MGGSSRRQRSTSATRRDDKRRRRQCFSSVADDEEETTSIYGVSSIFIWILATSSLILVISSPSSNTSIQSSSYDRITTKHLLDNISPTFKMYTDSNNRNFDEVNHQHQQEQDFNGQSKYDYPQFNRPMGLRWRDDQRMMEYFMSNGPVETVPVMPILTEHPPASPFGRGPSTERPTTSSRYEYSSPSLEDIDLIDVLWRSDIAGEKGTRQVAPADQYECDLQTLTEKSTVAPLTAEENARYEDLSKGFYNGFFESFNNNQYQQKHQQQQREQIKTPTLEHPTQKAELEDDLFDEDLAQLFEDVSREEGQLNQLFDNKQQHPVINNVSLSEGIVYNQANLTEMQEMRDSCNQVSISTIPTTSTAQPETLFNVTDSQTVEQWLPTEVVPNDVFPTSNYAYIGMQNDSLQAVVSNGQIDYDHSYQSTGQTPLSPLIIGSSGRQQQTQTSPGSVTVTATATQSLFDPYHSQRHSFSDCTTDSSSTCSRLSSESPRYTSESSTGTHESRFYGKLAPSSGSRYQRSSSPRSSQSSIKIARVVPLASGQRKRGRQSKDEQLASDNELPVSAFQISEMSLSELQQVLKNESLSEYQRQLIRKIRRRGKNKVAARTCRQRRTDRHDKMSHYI
Assay type: functional
Active and inactive are the calls of the source.
Please state which outcome applies, choosing from yes for active, no for inactive

Worked set:
[
  {
    "compound": "COc1ccc(C2C(C(C)=O)=C(C)N=c3s/c(=C\\c4cc(C)n(C)c4C)c(=O)n32)c(OC)c1 (stereo unspecified)",
    "group": "no"
  },
  {
    "compound": "c1ccc2sc(-c3ccncc3)nc2c1",
    "group": "no"
  },
  {
    "compound": "Clc1ccc2nc(-c3ccc(Br)s3)cn2c1",
    "group": "no"
  }
]

Let us examine a further case.
Lookup: Hi, do you know how `COc1cc(C(=O)Nc2nccs2)cc(OC)c1OC` came out in this test?
Found: no

* * *

Target: Fatty acid synthase (Homo sapiens, UniProt P49327)
Sequence (P49327 whole entry): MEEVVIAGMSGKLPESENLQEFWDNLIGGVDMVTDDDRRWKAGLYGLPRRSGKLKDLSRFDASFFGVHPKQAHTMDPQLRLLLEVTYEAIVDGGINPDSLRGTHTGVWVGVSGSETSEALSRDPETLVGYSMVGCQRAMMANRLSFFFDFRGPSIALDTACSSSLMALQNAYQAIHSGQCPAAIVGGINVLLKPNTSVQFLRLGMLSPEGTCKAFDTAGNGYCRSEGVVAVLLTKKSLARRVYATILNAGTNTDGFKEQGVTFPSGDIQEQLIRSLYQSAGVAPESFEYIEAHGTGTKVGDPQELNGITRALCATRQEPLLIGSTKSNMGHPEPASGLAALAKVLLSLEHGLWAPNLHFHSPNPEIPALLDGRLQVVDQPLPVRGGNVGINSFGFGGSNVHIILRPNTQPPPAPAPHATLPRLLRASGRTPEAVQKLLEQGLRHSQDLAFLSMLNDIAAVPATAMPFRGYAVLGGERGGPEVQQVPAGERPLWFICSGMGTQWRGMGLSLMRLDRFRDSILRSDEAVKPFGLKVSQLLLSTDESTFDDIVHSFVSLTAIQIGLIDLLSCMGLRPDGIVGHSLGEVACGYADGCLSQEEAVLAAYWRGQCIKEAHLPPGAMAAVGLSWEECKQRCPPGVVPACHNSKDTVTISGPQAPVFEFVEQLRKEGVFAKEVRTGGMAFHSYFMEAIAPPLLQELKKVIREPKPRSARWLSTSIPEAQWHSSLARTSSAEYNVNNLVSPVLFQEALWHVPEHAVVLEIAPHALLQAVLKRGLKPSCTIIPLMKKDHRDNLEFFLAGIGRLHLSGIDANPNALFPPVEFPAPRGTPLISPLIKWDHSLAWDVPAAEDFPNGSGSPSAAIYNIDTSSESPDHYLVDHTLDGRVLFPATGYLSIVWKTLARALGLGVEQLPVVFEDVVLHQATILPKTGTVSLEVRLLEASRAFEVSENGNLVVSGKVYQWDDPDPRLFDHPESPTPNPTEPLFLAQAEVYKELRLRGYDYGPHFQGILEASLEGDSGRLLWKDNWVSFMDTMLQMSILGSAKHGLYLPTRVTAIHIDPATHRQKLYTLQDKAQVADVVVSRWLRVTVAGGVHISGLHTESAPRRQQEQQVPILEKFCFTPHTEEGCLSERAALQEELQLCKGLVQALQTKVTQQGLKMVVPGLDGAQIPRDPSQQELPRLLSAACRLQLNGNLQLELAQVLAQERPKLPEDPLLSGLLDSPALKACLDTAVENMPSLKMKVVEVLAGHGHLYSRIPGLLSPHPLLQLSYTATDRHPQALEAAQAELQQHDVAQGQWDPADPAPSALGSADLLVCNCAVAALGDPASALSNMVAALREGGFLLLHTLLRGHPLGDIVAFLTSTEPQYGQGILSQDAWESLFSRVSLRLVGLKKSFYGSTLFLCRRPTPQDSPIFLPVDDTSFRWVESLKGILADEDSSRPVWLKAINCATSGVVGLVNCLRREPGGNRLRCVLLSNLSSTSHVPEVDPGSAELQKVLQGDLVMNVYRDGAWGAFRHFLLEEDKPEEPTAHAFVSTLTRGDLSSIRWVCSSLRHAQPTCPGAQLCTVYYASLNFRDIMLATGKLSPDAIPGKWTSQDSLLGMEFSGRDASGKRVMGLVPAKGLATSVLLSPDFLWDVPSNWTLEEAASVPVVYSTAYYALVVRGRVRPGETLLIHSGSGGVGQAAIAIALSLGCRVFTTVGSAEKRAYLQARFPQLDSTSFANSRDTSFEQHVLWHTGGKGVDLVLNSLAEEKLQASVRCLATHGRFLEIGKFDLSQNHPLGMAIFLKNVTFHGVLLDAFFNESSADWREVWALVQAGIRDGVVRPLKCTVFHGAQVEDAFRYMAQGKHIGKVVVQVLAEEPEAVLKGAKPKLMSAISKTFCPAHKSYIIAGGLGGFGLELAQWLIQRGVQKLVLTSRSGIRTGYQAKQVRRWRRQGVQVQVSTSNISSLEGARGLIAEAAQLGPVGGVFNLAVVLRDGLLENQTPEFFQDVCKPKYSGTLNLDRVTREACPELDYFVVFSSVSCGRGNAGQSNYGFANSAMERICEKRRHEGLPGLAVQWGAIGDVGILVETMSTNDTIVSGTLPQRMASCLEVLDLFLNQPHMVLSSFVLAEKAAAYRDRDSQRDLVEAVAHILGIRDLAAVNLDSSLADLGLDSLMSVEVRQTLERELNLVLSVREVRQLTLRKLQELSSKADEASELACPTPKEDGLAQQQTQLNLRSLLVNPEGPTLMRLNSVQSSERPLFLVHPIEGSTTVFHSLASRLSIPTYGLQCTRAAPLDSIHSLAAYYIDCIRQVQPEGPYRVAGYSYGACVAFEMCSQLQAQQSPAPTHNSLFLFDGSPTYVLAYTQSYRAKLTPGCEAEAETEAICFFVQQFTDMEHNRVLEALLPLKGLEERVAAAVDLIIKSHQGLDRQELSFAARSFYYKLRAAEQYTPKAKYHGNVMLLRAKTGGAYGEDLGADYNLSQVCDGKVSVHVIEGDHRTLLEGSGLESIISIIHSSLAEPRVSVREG
Assay: inhibition of human FAS-TE enzyme activity – biochemical, kinetic fluorescence intensity, dose response (AID 624326);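 also: rate of fluorescence rise from hydrolysis of a fluorogenic O-methyl fluorescein ester substrate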
Format: functional
The source made the active and inactive calls.
# IC50 per record follows

For orientation, consider the following solved cases.
[
  {
    "molecule": "CN(Cc1cccs1)C(=O)Cn1cnc2cc([N+](=O)[O-])ccc2c1=O",
    "result": "5.16 µM (active)"
  },
  {
    "molecule": "CCOC(=O)c1cc2c(=O)n3ccccc3nc2n(CC2CCCO2)/c1=N/C(=O)/C=C/c1ccccc1 (centres undefined)",
    "result": "3.99 µM (active)"
  },
  {
    "molecule": "Cc1ccc2c(c1C)-c1c(ccc(C)c1C)C(=O)C2=O",
    "result": "5.23 µM (active)"
  }
]

Read the next record carefully.
Sure, the documented IC50 for `O=C(/C=C/c1cccc([N+](=O)[O-])c1)NCCSCc1cccc(Cl)c1` is 7.25 µM (active)

* * *

Target: Luciferin 4-monooxygenase (Photinus pyralis, UniProt P08659)
Sequence (P08659 whole entry): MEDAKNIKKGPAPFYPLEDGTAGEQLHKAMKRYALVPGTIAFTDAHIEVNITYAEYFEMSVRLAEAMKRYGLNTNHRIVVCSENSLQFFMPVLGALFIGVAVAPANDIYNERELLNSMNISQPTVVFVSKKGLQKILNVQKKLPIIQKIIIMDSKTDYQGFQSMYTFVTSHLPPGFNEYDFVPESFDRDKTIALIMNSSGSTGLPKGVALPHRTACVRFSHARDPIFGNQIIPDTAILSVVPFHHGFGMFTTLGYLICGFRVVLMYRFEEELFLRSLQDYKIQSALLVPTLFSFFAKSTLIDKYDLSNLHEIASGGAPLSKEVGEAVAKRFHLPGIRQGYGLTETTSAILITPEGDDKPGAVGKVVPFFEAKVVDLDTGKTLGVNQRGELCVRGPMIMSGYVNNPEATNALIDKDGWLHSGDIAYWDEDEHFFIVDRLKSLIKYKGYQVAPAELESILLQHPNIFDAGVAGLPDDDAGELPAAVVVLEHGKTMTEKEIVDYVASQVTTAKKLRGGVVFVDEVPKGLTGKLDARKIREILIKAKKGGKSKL
Experiment: inhibition of purified Photinus pyralis luciferase – biochemical, luminescence, dose response (AID 1891)
Activity calls are given as the source filed them.
The reader will find reported EC50 values listed item by item below.

Field: example entries. Status: answers known.
[
  {
    "compound": "Cc1nnc(SCCN2CCOCC2)c2nn(-c3ccccc3F)c(C)c12",
    "EC50": "> 112 µM (not active)"
  },
  {
    "compound": "CCn1c(SCC(=O)N(C)c2c(N)n(Cc3ccccc3)c(=O)[nH]c2=O)nc2ccccc21",
    "EC50": "> 112 µM (not active)"
  },
  {
    "compound": "CCOC(=O)C1CCN(C(c2ccccn2)c2c(C)[nH]c3ccccc23)CC1 (stereo unspecified)",
    "EC50": "> 112 µM (not active)"
  },
  {
    "compound": "C=CCn1c(-c2cc(Cl)ccc2OC)n[nH]c1=S",
    "EC50": "> 112 µM (not active)"
  },
  {
    "compound": "COC(=O)c1ccc(NC(=O)C(=O)c2cccn2C)cc1",
    "EC50": "1.74 µM (active)"
  }
]

Now let's try a different one.
Entry `CCOC(=O)c1cc2cc(OC)ccc2nc1C` — recorded EC50 = > 112 µM (not active)

* * *

Target: Paired box protein Pax-8 (Homo sapiens, UniProt Q06710)
Sequence (Q06710 whole entry): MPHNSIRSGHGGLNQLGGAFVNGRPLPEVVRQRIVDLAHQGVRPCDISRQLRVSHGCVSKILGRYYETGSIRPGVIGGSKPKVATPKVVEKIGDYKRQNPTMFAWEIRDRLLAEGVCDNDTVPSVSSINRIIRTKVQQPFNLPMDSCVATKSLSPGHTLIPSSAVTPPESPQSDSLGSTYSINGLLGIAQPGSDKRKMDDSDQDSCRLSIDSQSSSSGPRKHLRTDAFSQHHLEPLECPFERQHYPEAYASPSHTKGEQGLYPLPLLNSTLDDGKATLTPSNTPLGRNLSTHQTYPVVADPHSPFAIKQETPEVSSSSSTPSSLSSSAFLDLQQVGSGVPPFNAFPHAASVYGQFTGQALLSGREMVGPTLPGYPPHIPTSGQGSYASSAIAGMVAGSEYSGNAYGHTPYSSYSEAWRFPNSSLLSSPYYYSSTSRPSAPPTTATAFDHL
Test: PAX8 transcriptional activity inhibition in RMG-I – RMG-I cells, luciferase, cherry-pick, dose response (AID 687027);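 also: luciferase reporter driven by Pax8 target thyroperoxidase promoter measured by SteadyGlo luminescence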
Type: functional, cell-based
Active and inactive are the calls of the source.
readout.name: AC50

Consider the following illustrative entries.
[
  {
    "compound": "COc1ccc(CN(C)C[C@@H]2OCCCC[C@H](C)Oc3ccc(NS(=O)(=O)c4ccc(C)cc4)cc3C(=O)N([C@H](C)CO)C[C@H]2C)cc1",
    "AC50": "16.8 µM (active)"
  },
  {
    "compound": "O=C1C(=O)c2cccnc2-c2ncccc21",
    "AC50": "3.32 µM (active)"
  },
  {
    "compound": "O=C(c1ccc(F)cc1)N1C[C@@H]2N[C@H](C1)[C@@H]2c1ccc(-c2ccc(F)cc2)cc1",
    "AC50": "18.3 µM (active)"
  },
  {
    "compound": "COc1ccccc1C#Cc1ccc2c(c1)O[C@@H](CN(C)Cc1ccncc1)[C@H](C)CN([C@H](C)CO)S2(=O)=O",
    "AC50": "2.39 µM (active)"
  },
  {
    "compound": "COC1C(CO)OC(n2c3c(Cl)cccc3c3c4c(c5c6cccc(Cl)c6[nH]c5c32)C(=O)NC4=O)C(O)C1O (stereo unspecified)",
    "AC50": "1.11 µM (active)"
  },
  {
    "compound": "O=C(Nc1ccc2nc3n(c(=O)c2c1)CCCCC3)c1cc([N+](=O)[O-])ccc1F",
    "AC50": "14.3 µM (active)"
  },
  {
    "compound": "C[C@@H]1CN([C@H](C)CO)C(=O)c2cc(NC(=O)Nc3ccccc3)ccc2O[C@@H](C)CCCCO[C@@H]1CN(C)Cc1ccc(Cl)c(Cl)c1",
    "AC50": "4.45 µM (active)"
  },
  {
    "compound": "C[C@@H]1CCCCO[C@H](CN(C)S(=O)(=O)c2ccc(Cl)cc2)[C@H](C)CN([C@@H](C)CO)C(=O)c2cc(N(C)C)ccc2O1",
    "AC50": "8.81 µM (active)"
  },
  {
    "compound": "C[C@@H]1CCCCO[C@H](CN(C)Cc2ccccc2)[C@@H](C)CN([C@@H](C)CO)C(=O)c2cc(NC(=O)Nc3ccc(C(F)(F)F)cc3)ccc2O1",
    "AC50": "19 µM (active)"
  },
  {
    "compound": "COc1ccc(S(=O)(=O)N(C)C[C@@H]2Oc3ccc(NC(=O)Nc4ccc(C(F)(F)F)cc4)cc3CC(=O)N([C@H](C)CO)C[C@@H]2C)cc1",
    "AC50": "4.64 µM (active)"
  }
]

Noted AC50 for `Cc1ccc2c(c1C)-c1c(ccc(C)c1C)C(=O)C2=O` , tested on Paired box protein Pax-8 (Homo sapiens, UniProt Q06710): 3.67 µM (active)

// assay Paired box protein Pax-8 (Homo sapiens, UniProt Q06710), entry `CS(=O)(=O)Nc1ccc2c(c1)[C@@H]1C[C@@H](CC(=O)NCc3ccc(-c4ccccc4)cc3)O[C@@H](CO)[C@@H]1O2` , AC50 value = 3.2 µM (active)

Paired box protein Pax-8 (Homo sapiens, UniProt Q06710) AC50 of `C[C@@H]1CCCCO[C@H](CN(C)Cc2ccc(C(F)(F)F)cc2)[C@H](C)CN([C@H](C)CO)C(=O)c2cc(NC(=O)Nc3ccc(F)cc3)ccc2O1` is 10.7 µM (active)

Measured AC50 for this entry Nc1nc2nc[nH]c2c(=S)[nH]1 [THIOGUANINE] on Paired box protein Pax-8 (Homo sapiens, UniProt Q06710): 1.18 µM (active)

// assay Paired box protein Pax-8 (Homo sapiens, UniProt Q06710), entry `COc1ccc(/C=N/NC(=O)c2[nH]c3ccc(Br)cc3c2-c2ccccc2)cc1` , AC50 value = < 0.5 µM (active)

Kindly note: Paired box protein Pax-8 (Homo sapiens, UniProt Q06710), `O=C(/C=C/c1ccccc1)Nc1cccc(C(=O)O)c1` , AC50 value reported: 4.06 µM (active)

* * *

Each entry below carries its recorded EC50.
Test: Trypanosoma cruzi growth suppression in host cells – NIH3T3 host cells, beta-gal luminescence, confirmation (AID 2044);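 also: intracellular parasites grown in NIH/3T3 mouse fibroblasts as host cells; luminescent beta-galactosidase reporter signal from transgenic T. cruzi replicating inside host cells; inhibitors lower the luminescence signal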
Assay type: functional, cell-based
Activity calls are given as the source filed them.

[
  {
    "molecule": "CCOC(=O)/C(=N/Nc1ccccc1)c1csc(Nc2ccccc2)n1",
    "EC50": "1.39 µM (active)"
  },
  {
    "molecule": "CC(=O)c1ccc(-[n+]2cc(-c3ccc(C(C)(C)C)cc3)n3c2SCCC3)cc1",
    "EC50": "0.443 µM (active)"
  },
  {
    "molecule": "Cc1ccc(C)c(NC(S)=NN=C(S)Nc2ccc(C(C)C)cc2)c1",
    "EC50": "2.69 µM (active)"
  },
  {
    "molecule": "CCC(C)n1ncn(-c2ccc(N3CCN(c4ccc(OCC5COC(Cn6cncn6)(c6ccc(Cl)cc6Cl)O5)cc4)CC3)cc2)c1=O (stereo not given) [ITRACONAZOLE]",
    "EC50": "0.1 µM (active)"
  }
]

Sure, the documented EC50 for `Cc1ccc(-c2c[n+](Cc3cccc(Cl)c3)c3n2CCC3)cc1` is < 0.1 µM (active)
